A collection of compounds and their measured inhibition at 0.1 µM
Biological target: human recombinant serotonin (5-Hydroxytryptamine) 5-HT7 receptor (Homo sapiens, UniProt P34969)
Construct: expressed in transfected cells; host or cells: CHO
Sequence (P34969 whole entry): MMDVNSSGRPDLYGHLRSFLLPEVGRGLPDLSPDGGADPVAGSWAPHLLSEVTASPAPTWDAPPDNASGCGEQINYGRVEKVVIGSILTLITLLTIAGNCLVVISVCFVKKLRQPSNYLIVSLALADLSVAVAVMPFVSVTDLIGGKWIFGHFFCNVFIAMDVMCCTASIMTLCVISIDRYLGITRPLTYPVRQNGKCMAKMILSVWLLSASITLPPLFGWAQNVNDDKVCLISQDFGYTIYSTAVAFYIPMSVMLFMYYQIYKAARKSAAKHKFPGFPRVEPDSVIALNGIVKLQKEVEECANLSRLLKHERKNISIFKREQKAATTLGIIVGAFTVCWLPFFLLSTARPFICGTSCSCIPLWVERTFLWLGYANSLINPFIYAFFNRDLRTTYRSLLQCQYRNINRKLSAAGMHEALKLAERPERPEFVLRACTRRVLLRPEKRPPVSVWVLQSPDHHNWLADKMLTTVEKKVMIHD
Test: Serotonin 5-HT7 radioligand binding ([3H]LSD)
Settings: compound at 0.1 μM; read-out: Serotonin (0.1 μM) 5-HT7, percentage inhibition of ligand binding
Please answer in the form of a number followed by its unit of measurement.

Below, each entry is followed by its recorded inhibition at 0.1 µM result.
{"COMPOUND": "CN1CCc2c(c3cccc4c3n2CC(c2ccncc2)C4)C1 (stereo not shown)", "inhibition at 0.1 µM": "10%"}
{"COMPOUND": "CN1CCc2c(c3cccc4c3n2CC(=O)N4)C1", "inhibition at 0.1 µM": "4%"}
{"COMPOUND": "CN1CCc2c(c3cccc4c3n2CC(c2ccc(F)cc2)C4)C1 (stereo not shown)", "inhibition at 0.1 µM": "16%"}
{"COMPOUND": "Cc1cc2c3c(c1)c1c(n3CC(c3ccc(F)cc3)CC2)CCN(C)C1 (stereo not shown)", "inhibition at 0.1 µM": "80%"}
{"COMPOUND": "Cc1cc2c(-c3ccccc3)cn3c4c(c(c1)c23)CN(C)CC4", "inhibition at 0.1 µM": "78%"}

GET /values?readout=inhibition at 0.1 µM&item= CN1CCc2c(c3cccc4c3n2CC(c2ccncc2)S4)C1 (stereo not shown)
12%

Please give the result for Cc1cc2c3c(c1)c1c(n3C[C@](C)(c3ccncc3)O[C@H]2C)CCN(C)C1 too.
-3%

Please give the result for Cc1ccc(C2Cn3c4c(c5cccc2c53)CN(C)CC4)cn1 (stereo not shown) too.
21%

Please give the result for Cc1cc2c3c(c1)c1c(n3CC(c3ccc(F)cc3)=C2)CCN(C)C1 too.
36%

Please give the result for CN1CCc2c(c3cccc4c3n2C(c2ccccc2)C(=O)N4)C1 (stereo not shown) too.
30%
